Assay: Particle size and polydispersity index of nanoparticle compositions (Zetasizer Nano ZS)
Format: physicochemical
Conditions: Table 1d, Formulated with lipid:Chol:DOPE:PEG 1 40:38.5:20:1.5

| molecule | Size (nm) |
| --- | --- |
| CCCCCCCCCCCCCCN(C/C=C\COC(=O)CCCCCCCC)CC(=O)N1CCN(C(=O)CN(CCCCCCCCC)CCN(CCCCCCCCC)CCCCCCCCC)CC1 [Compound 141] | 131.5 |
| CCCC/C=C\CCCCCCCCN(CCCOC(=O)CCCCCCCCC)CC(=O)N1CCN(C(=O)CN(CCCCCCCCC)CCN(CCCCCCCCC)CCCCCCCCC)CC1 [Compound 140] | 131.1 |
| CCCCCCCCCN(CCCCCCCCC)CCN(CCCCCCCCC)CC(=O)NCCNC(=O)CN(CCCCCCCCC)CCCCCCCCC [Compound 153] | 116.7 |

---

Recorded PDI by entry
Assay: Particle size and polydispersity index of nanoparticle compositions (Zetasizer Nano ZS)
Assay type: physicochemical
Settings: Table 1c; nanoparticle compositions

| compound | PDI |
| --- | --- |
| CCCCCCCCCN(CCCCCCCCC)CCN(CCCCCCCCC)CC(=O)N1CCN(C(=O)CN(CCCCCCCCC)CCCCCOC(=O)OC)CC1 | 0.16 |
| CCCCCCCCCN(CCCCCCCCC)CCN(CCCCCCCCC)CC(=O)N(C)CCN(C)C(=O)CN(CCCCCCCCC)CCCC(=O)OCCCCC | 0.16 |
| CCCCCCCCCCCCCCN(CCCCCCCCCCCC(=O)OC)CCC1CCN(C(=O)CN(CCCCCCCCC)CCN(CCCCCCCCC)CCCCCCCCC)CC1 | 0.19 |

---

Assay: Lipid purity change after storage in EtOH for 96 h at 25 or 37 °C
Assay type: physicochemical
Conditions: 25° C.
observationType: Lipid % change purity in EtOH, 25° C., 96 h (%)

| molecule | endpointValue |
| --- | --- |
| CCCCCCCCCCCCCCN(CCCCCCCCCCCC(=O)OC)CCC1CCN(C(=O)CN(CCCCCCCCC)CCN(CCCCCCCCC)CCCCCCCCC)CC1 | 2.2 |
| CCCCCCCCCCCCCCN(CCCCCCCC(=O)OCCCCC)CCC1CCN(C(=O)CN(CCCCCCCCC)CCN(CCCCCCCCC)CCCCCCCCC)CC1 | 0 |
| CCCCCCCCCN(CCCCCCCCC)CCN(CCCCCCCCC)CC(=O)N1CCC(CCN(CCCCCCCCC)CC(C)COC(=O)CCCCC)CC1 (centres unmarked) | 1.84 |
| CCCCCCCCCCCCCCN(CCCCCC(=O)OCCCCCCC)CCC1CCN(C(=O)CN(CCCCCCCCC)CCN(CCCCCCCCC)CCCCCCCCC)CC1 | 5.9 |
| CCCCCCCCCCCCCCN(CCCOC(=O)CCCCCCCCC)CCC1CCN(C(=O)CN(CCCCCCCCC)CCN(CCCCCCCCC)CCCCCCCCC)CC1 | 4.5 |

---

Experiment: Encapsulation efficiency of RNA (QUANT-IT RIBOGREEN RNA assay)
Assay type: physicochemical
Conditions: Table 1c; nanoparticle compositions
Below is a list of entries, each paired with its recorded EE (%) value.
observationType: EE (%)

| compound | observationType | endpointValue |
| --- | --- | --- |
| CCCCCCCCCCCCCCN(CCCCCC(=O)OCCCCCCC)CCC1CCN(C(=O)CN(CCCCCCCCC)CCN(CCCCCCCCC)CCCCCCCCC)CC1 [Compound 94] | EE (%) | 98.4 |
| CCCCCCCCCCCCCCN(CCCCCC(=O)OCCCCCCC)CC(=O)N1CCN(C(=O)CN(CCCCCCCCC)CCN(CCCCCCCCC)CCCCCCCCC)CC1 [Compound 91] | EE (%) | 97.6 |
| CCCCCCCCCN(CCCCCCCCC)CCN(CCCCCCCCC)CC(=O)N1CCC(CCN(CCCCCCCCC)CC(C)COC(=O)CCCCC)CC1 (stereo not drawn) [Compound 132] | EE (%) | 98.6 |
